Quick reference: MIC of the listed items.
tested on: clinically isolated MDR, XDR, and TDR M. tuberculosis strains; assay: microbe, parasite or virus in culture; type: cell-based; details: Mycobacterium tuberculosis, TDR-2
Metric: MIC (µg/mL)

molecule=[H]/N=C(/N)N[C@H]1[C@H](O)[C@@H](O)[C@H](O[C@@H]2O[C@@H](C)[C@](O)(C=O)[C@H]2O[C@@H]2O[C@@H](CO)[C@H](O)[C@@H](O)[C@@H]2NC)[C@@H](N/C(N)=N\[H])[C@@H]1O metric=MIC prefix_operator=> reported=100
molecule=CCCCOc1ccc2cc(CN3C(=O)CC[C@H]3C(=O)OC)c3cc(OC)c(OC)cc3c2c1 metric=MIC prefix_operator== reported=0.2
molecule=COC(=O)[C@@H]1CCC(=O)N1Cc1cc2ccc(OCc3ccccc3)cc2c2cc(OC)c(OC)cc12 metric=MIC prefix_operator== reported=1.6
molecule=COC(=O)[C@@H]1CCC(=O)N1Cc1cc2ccc(OC)cc2c2cc(OC)c(OC)cc12 metric=MIC prefix_operator== reported=0.8
molecule="CO[C@H]1/C=C/O[C@@]2(C)Oc3c(C)c(O)c4c(O)c(c(/C=N/N5CCN(C)CC5)c(O)c4c3C2=O)NC(=O)/C(C)=C\\C=C\\[C@H](C)[C@H](O)[C@@H](C)[C@@H](O)[C@@H](C)[C@H](OC(C)=O)[C@@H]1C [RIF, rifampicin, reference compound]" metric=MIC prefix_operator=> reported=100
molecule="NC(=O)c1cnccn1 [PZA, pyrazinamide]" metric=MIC prefix_operator=> reported=100
molecule="NNC(=O)c1ccncc1 [INH, isoniazid, reference compound]" metric=MIC prefix_operator== reported=6.3
molecule=CC[C@@H](CO)NCCN[C@@H](CC)CO metric=MIC prefix_operator== reported=6.3
